Property: Cannabinoid content of NTI164, Day 0; scope: individual compounds
test: Stability of NTI164 oil formulation at room temperature (UPLC); conditions: NTI164 oil, room temperature, Day 0
Write the number in mg/mL without appending the unit.

// sample C=C(C)[C@@H]1CCC(C)=C[C@H]1c1c(O)cc(CCCCC)c(C(=O)O)c1O , its Cannabinoid content of NTI164, Day 0 was 48.16

// sample C=C(C)[C@@H]1CCC(C)=C[C@H]1c1c(O)cc(CCCCC)cc1O , its Cannabinoid content of NTI164, Day 0 was 0.46

// sample CCCCCc1cc(O)c2c(c1)OC(C)(CCC=C(C)C)C=C2 (centres unmarked) , its Cannabinoid content of NTI164, Day 0 was 1.23
